These measurements were taken from ChEMBL document CHEMBL6182850.

- tgt: UniProt Q96S37
- Sequence (Q96S37 whole entry): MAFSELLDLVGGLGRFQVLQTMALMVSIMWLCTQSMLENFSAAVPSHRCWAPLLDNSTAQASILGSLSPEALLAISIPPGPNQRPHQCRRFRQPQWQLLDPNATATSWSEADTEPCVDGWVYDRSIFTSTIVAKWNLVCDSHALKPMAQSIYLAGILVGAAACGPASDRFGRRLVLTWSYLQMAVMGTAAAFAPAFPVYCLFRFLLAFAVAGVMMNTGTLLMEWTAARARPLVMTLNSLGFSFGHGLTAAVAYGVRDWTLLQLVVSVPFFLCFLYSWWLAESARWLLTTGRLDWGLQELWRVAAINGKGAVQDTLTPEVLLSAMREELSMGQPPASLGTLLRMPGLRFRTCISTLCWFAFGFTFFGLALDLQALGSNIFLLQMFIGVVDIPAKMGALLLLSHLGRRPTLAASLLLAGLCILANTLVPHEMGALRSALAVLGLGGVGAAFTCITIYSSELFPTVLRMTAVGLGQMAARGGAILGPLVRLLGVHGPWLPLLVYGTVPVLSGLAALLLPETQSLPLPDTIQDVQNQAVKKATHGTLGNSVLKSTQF
- assay remarks: Inhibition of human URAT-1 overexpressed in HEK293 cells assessed as reduction in 14C-uric acid uptake at 10 uM pretreated for 15 mins followed by 14C-uric acid addition measured after 10 mins by a liquid scintillation counter analysis relative to control
- Type: cell-based
- assay conditions: 25 min
Record 1.0 whenever inhibition at 10 µM is at 60% or higher; record 0.0 when lower.

>>> group("O=C(Nc1ccccc1C(=O)O)c1cc(-c2ccccc2C(F)(F)F)n(Cc2ccccn2)n1")
1.0
>>> group("O=C(Nc1ccccc1C(=O)O)c1cc(-c2nccs2)n(Cc2ccccn2)n1")
1.0
>>> group("CC(C)(C)c1cc(C(=O)Nc2ccccc2C(=O)O)nn1Cc1ccccn1")
0.0
>>> group("Cc1ccccc1-c1cc(C(=O)Nc2ccccc2C(=O)O)nn1Cc1ccccn1")
1.0
>>> group("COc1ccc(-c2cc(C(=O)Nc3ccccc3C(=O)O)nn2Cc2ccccn2)cc1")
1.0
>>> group("O=C(Nc1ccccc1C(=O)O)c1cc(-c2ccncc2)n(Cc2ccccn2)n1")
0.0
>>> group("O=C(Nc1ccccc1C(=O)O)c1cc(-c2ccc(-c3ccccc3)cc2)n(Cc2ccccn2)n1")
0.0
>>> group("O=C(Nc1ccccc1C(=O)O)c1cc(C2CC2)n(Cc2ccccn2)n1")
0.0
>>> group("O=C(Nc1ccccc1C(=O)O)c1cc(-c2cccc(F)c2)n(Cc2ccccn2)n1")
1.0
>>> group("O=C(Nc1ccccc1C(=O)O)c1cc(-c2ccc3ccccc3c2)n(Cc2ccccn2)n1")
0.0
>>> group("O=C(Nc1ccccc1C(=O)O)c1cc(-c2ccc(Cl)cc2)n(Cc2ccccn2)n1")
1.0
>>> group("O=C(Nc1ccccc1C(=O)O)c1cc(-c2ccccc2Cl)n(Cc2ccccn2)n1")
1.0
>>> group("O=C(Nc1ccccc1C(=O)O)c1cc(-c2ccccc2OC(F)(F)F)n(Cc2ccccn2)n1")
0.0
>>> group("O=C(Nc1ccccc1C(=O)O)c1cc(-c2ccccc2Br)n(Cc2ccccn2)n1")
1.0
>>> group("O=C(Nc1ccccc1C(=O)O)c1cc(-c2cccc(C(F)(F)F)c2)n(Cc2ccccn2)n1")
1.0
>>> group("O=C(Nc1ccccc1C(=O)O)c1cc(-c2ccc(F)cc2)n(Cc2ccccn2)n1")
0.0
>>> group("O=C(Nc1ccccc1C(=O)O)c1cc(-c2ccccc2)n(Cc2ccccn2)n1")
0.0
>>> group("Cc1cccc(-c2cc(C(=O)Nc3ccccc3C(=O)O)nn2Cc2ccccn2)c1")
0.0
>>> group("O=C(Nc1ccccc1C(=O)O)c1cc(-c2ccc(C(F)(F)F)cc2)n(Cc2ccccn2)n1")
1.0
>>> group("COc1ccccc1-c1cc(C(=O)Nc2ccccc2C(=O)O)nn1Cc1ccccn1")
1.0
>>> group("O=C(Nc1ccccc1C(=O)O)c1cc(-c2cccc(Br)c2)n(Cc2ccccn2)n1")
1.0
>>> group("O=C(Nc1ccccc1C(=O)O)c1cc(-c2ccc(Br)cc2)n(Cc2ccccn2)n1")
1.0
>>> group("O=C(Nc1ccccc1C(=O)O)c1cc(-c2ccc(OC(F)(F)F)cc2)n(Cc2ccccn2)n1")
0.0
>>> group("Cc1ccc(-c2cc(C(=O)Nc3ccccc3C(=O)O)nn2Cc2ccccn2)cc1")
1.0
>>> group("O=C(Nc1ccccc1C(=O)O)c1cc(C2CCCCC2)n(Cc2ccccn2)n1")
0.0
>>> group("O=C(Nc1ccccc1C(=O)O)c1cc(-c2cccc(OC(F)(F)F)c2)n(Cc2ccccn2)n1")
0.0
